test: Determination of the lethal dose (LD50)
condition-details: male, mouse, in vivo, ip, male mice, intraperitoneal; read-out: LD50 95% confidence limits
endpoint-label: LD50 at 72 h

What value of LD50 at 72 h has been reported for the following molecule? O=C1CCCN2N=C(c3ccc(Br)cc3)SC2=N1
185 to 205 mg/kg

###

test: Determination of the lethal dose (LD50)
condition-details: male, mouse, in vivo, ip, male mice, intraperitoneal, observation 72 hours; read-out: LD50
endpoint-label: LD50 at 72 h (mg/kg)
Give just the numeric value; mg/kg need not be written.

Entry O=C1CCCN2N=C(c3ccc(Br)cc3)SC2=N1 [GS-53] has what LD50 at 72 h?
195

FYI, the data here is from patent US8846665B2.
